molecular target: KCNQ 2/3 channels (HEK293 cells stably expressing human KCNQ2 and KCNQ3 subunits) (Homo sapiens, UniProt O43525+O43526); experiment: KCNQ2/3 channel activation, thallium flux FLIPR assay with BTC-AM dye; settings: HEK293 cells expressing human KCNQ2 and KCNQ3; thallium flux, FLIPR
recordedEndpoint: EC50

INPUT: // lookup EC50 for COc1ccc(-c2nn(NC(=O)CC34CC5CC(CC(C5)C3)C4)c(=O)c3cc(Br)ccc23)cc1
OUTPUT: > 10000 nM

INPUT: // lookup EC50 for O=C(C[C@@H]1C[C@@H]2CC[C@H]1C2)Nn1nc(C2CCC2)c2ccccc2c1=O
OUTPUT: < 100 nM

INPUT: // lookup EC50 for CC(C)(CC(=O)Nn1nc(Cc2ccccc2)c2ccccc2c1=O)c1ccccc1
OUTPUT: < 100 nM

Further cases:
INPUT: // lookup EC50 for CC1(C)[C@H]2CC[C@@H](CC(=O)Nn3nc(-c4ccc(Cl)cc4)c4ccccc4c3=O)[C@@H]1C2
OUTPUT: 100 to 500 nM

INPUT: // lookup EC50 for O=C(Cc1cc(F)cc(F)c1)Nn1nc(-c2ccc(Cl)cc2)c2c(F)ccc(F)c2c1=O
OUTPUT: 100 to 500 nM

INPUT: // lookup EC50 for CN(C)c1ccc(CC(=O)Nn2nc(C(F)(F)F)c3ccccc3c2=O)cc1
OUTPUT: > 10000 nM

INPUT: // lookup EC50 for O=C(Cc1ccc(F)cc1)Nn1nc(-c2ccccc2)c2c(F)ccc(F)c2c1=O
OUTPUT: 100 to 500 nM

INPUT: // lookup EC50 for COC(=O)c1ccc(-c2nn(NC(=O)C[C@H]3C[C@@H]4CC[C@H]3C4)c(=O)c3ccccc23)cc1 (racemic)
OUTPUT: < 100 nM

INPUT: // lookup EC50 for O=C(CSC12CC3CC(CC(C3)C1)C2)Nn1nc(-c2ccccc2)c2ccccc2c1=O
OUTPUT: 100 to 500 nM

###

target: KCNQ 2/3 channels (HEK293 cells stably expressing human KCNQ2 and KCNQ3 subunits) (Homo sapiens, UniProt O43525+O43526); assay: KCNQ2/3 channel activation, thallium flux FLIPR assay with BTC-AM dye; settings: HEK293 cells expressing human KCNQ2 and KCNQ3; thallium flux, FLIPR
recordedEndpoint: EC50

Completed entries (count: 2):
INPUT: // lookup EC50 for O=C(Cc1cc(F)cc(F)c1)Nn1nc(Cl)c2ccccc2c1=O
OUTPUT: 1000 to 10000 nM

INPUT: // lookup EC50 for O=C(C[C@H]1C[C@@H]2CC[C@H]1C2)Nn1nc(-c2ccc(F)cc2F)c2ccccc2c1=O (racemic)
OUTPUT: < 100 nM

Further cases:
INPUT: // lookup EC50 for O=C(Cc1ccc(C(F)(F)F)cc1)Nn1nc(-c2ccc(Cl)cc2)c2ccccc2c1=O
OUTPUT: 500 to 1000 nM

INPUT: // lookup EC50 for O=C(Cc1ccc(Cl)cc1Cl)Nn1nc(-c2ccccc2)c2ccccc2c1=O
OUTPUT: > 10000 nM

###

molecular target: KCNQ 2/3 channels (HEK293 cells stably expressing human KCNQ2 and KCNQ3 subunits) (Homo sapiens, UniProt O43525+O43526); assay: KCNQ2/3 channel activation, thallium flux FLIPR assay with BTC-AM dye; conditions: HEK293 cells expressing human KCNQ2 and KCNQ3; thallium flux, FLIPR
pEC50: −log10 of the molar value.
recordedEndpoint: pEC50

Completed entries (count: 3):
INPUT: // lookup pEC50 for Cc1ccc(-c2nn(NC(=O)C[C@@H]3CC[C@H]4C[C@@H]3C4(C)C)c(=O)c3ccccc23)cc1 [Example 137]
OUTPUT: 6.30 to 7.00

INPUT: // lookup pEC50 for Cc1ccc(-c2nn(NC(=O)Cc3ccc(Cl)cc3)c(=O)c3ccccc23)cc1 [Example 135]
OUTPUT: 6.30 to 7.00

INPUT: // lookup pEC50 for O=C(Cc1ccc(Br)cc1)Nn1nc(-c2ccc(Cl)cc2)c2ccccc2c1=O [Example 102]
OUTPUT: 6.00 to 6.30

Okay, now this molecule:
INPUT: // lookup pEC50 for CS(=O)(=O)c1ccc(CC(=O)Nn2nc(-c3ccc(Cl)cc3)c3ccccc3c2=O)cc1 [Example 111]
OUTPUT: < 5.00

###

target: KCNQ 2/3 channels (HEK293 cells stably expressing human KCNQ2 and KCNQ3 subunits) (Homo sapiens, UniProt O43525+O43526); construct: expressed in transfected cells; host or cells: HEK293; test: KCNQ2/3 channel activation, thallium flux FLIPR assay with BTC-AM dye; type: cell-based; conditions: HEK293; maximum response relative to the response produced by 10 μM retigabine (set at 100%); read-out: Max. %
recordedEndpoint: Emax (%)

Completed entries (count: 2):
INPUT: // lookup Emax for O=C(Cc1ccc(Cl)cc1)Nn1nc(Cl)c2ccccc2c1=O
OUTPUT: 82

INPUT: // lookup Emax for O=C(Nn1nc(-c2ccc(Cl)cc2)c2ccccc2c1=O)C(F)c1ccccc1 (stereo not drawn)
OUTPUT: 1

a = O=C(CC12CC3CC(CC(Br)(C3)C1)C2)Nn1nc(-c2ccccc2)c2ccsc2c1=O
b = O=C(Cc1cccnc1)Nn1nc(-c2ccc(Cl)cc2)c2ccccc2c1=O
INPUT: // which entry reports the smaller Emax, a or b ? Indicate your choice by writing its label.
OUTPUT: a
(a: 56%, b: 149%)

###

target: KCNQ 2/3 channels (HEK293 cells stably expressing human KCNQ2 and KCNQ3 subunits) (Homo sapiens, UniProt O43525+O43526); construct: expressed in transfected cells; host or cells: HEK293; assay: KCNQ2/3 channel activation, thallium flux FLIPR assay with BTC-AM dye; assay type: cell-based; conditions: HEK293; maximum response relative to the response produced by 10 μM retigabine (set at 100%); read-out: Max. %
recordedEndpoint: Emax (%)

INPUT: // lookup Emax for Cc1ccc(-c2nn(NC(=O)Cc3ccc(Cl)cc3)c(=O)c3ccccc23)cc1C [Example 165]
OUTPUT: 112

I = CN(C)c1ccc(CC(=O)Nn2nc(C(F)(F)F)c3ccccc3c2=O)cc1 [Example 47]
II = O=C(Cc1ccc(Cl)c(F)c1)Nn1nc(-c2ccc(Cl)cc2)c2ccccc2c1=O [Example 114]
INPUT: // which entry reports the smaller Emax, I or II ? Indicate your choice by writing its label.
OUTPUT: I

###

biological target: KCNQ 2/3 channels (HEK293 cells stably expressing human KCNQ2 and KCNQ3 subunits) (Homo sapiens, UniProt O43525+O43526); construct: expressed in transfected cells; host or cells: HEK293; test: KCNQ2/3 channel activation, thallium flux FLIPR assay with BTC-AM dye; type: cell-based; details: HEK293; maximum response relative to the response produced by 10 μM retigabine (set at 100%); read-out: Max. %
recordedEndpoint: Emax (%)

INPUT: // lookup Emax for CC(C)c1nn(NC(=O)CC23CC4CC(CC(O)(C4)C2)C3)c(=O)c2ccccc12 [Example 61]
OUTPUT: 26

I = Cc1ccc(C)c(-c2nn(NC(=O)CC34CC5CC(CC(C5)C3)C4)c(=O)c3ccccc23)c1 [Example 156]
II = O=C(Cc1ccc(Cl)cc1)Nn1nc(-c2cccc(Cl)c2)c2ccccc2c1=O [Example 127]
INPUT: // which entry reports the smaller Emax, I or II ? Indicate your choice by writing its label.
OUTPUT: II

I = O=C(CSC12CC3CC(CC(C3)C1)C2)Nn1nc(C(F)(F)F)c2ccccc2c1=O [Example 192]
II = O=C(CC1(c2ccc(Cl)cc2)CCC1)Nn1nc(C(F)(F)F)c2ccccc2c1=O [Example 40]
III = COc1ccc(-c2nn(NC(=O)Cc3cc(F)cc(F)c3)c(=O)c3cc(Br)ccc23)cc1 [Example 177]
INPUT: Could you please order the items by Emax, going from the lowest number to the highest? Give me the labels in the order the question wants.
OUTPUT: II, III, I
(II: 7%, III: 48%, I: 155%)

###

molecular target: KCNQ 2/3 channels (HEK293 cells stably expressing human KCNQ2 and KCNQ3 subunits) (Homo sapiens, UniProt O43525+O43526); assay: KCNQ2/3 channel activation, thallium flux FLIPR assay with BTC-AM dye; settings: HEK293 cells expressing human KCNQ2 and KCNQ3; thallium flux, FLIPR
pEC50: −log10 of the molar value.
recordedEndpoint: pEC50

INPUT: // lookup pEC50 for O=C(Cc1cccs1)Nn1nc(C(F)(F)F)c2ccccc2c1=O [Example 54]
OUTPUT: 5.00 to 6.00

Further cases:
INPUT: // lookup pEC50 for O=C(Cc1cc(F)cc(F)c1)Nn1nc(C(F)(F)F)c2ccccc2c1=O [Example 11]
OUTPUT: 6.30 to 7.00

INPUT: // lookup pEC50 for O=C(C[C@H]1C[C@@H]2CC[C@H]1C2)Nn1nc(-c2ccc(Br)cc2)c2ccccc2c1=O (racemic) [Example 84]
OUTPUT: > 7.00

INPUT: // lookup pEC50 for O=C(Cc1ccc(Cl)s1)Nn1nc(-c2ccc(Cl)cc2)c2ccccc2c1=O [Example 112]
OUTPUT: 6.30 to 7.00

INPUT: // lookup pEC50 for O=C(Cc1cc(F)cc(F)c1)Nn1nc(Cc2ccc(Cl)cc2)c2ccccc2c1=O [Example 146]
OUTPUT: 6.30 to 7.00

INPUT: // lookup pEC50 for O=C(CC1CC2CCC1C2)Nn1nc(-c2ccc(Cl)cc2)c2c(F)ccc(F)c2c1=O (racemic) [Example 184]
OUTPUT: > 7.00
